Recorded values, source ChEMBL document CHEMBL5537142.

For each entry below, report its solubility at 5 min value.
Protocol: Solubility of compound incubated for 5 mins by absorbance based assay
Type: physicochemical

# solubility at 5 min lookup, item Nc1ncc(-c2ccc(Cl)c(Cl)c2)c(N)n1
> 100 µM

Which value of solubility at 5 min has been reported for Nc1ncc(-c2cccc(Cl)c2)c(N)n1 in the records?
> 100 µM

Dear colleague, I am looking for the recorded solubility at 5 min of the following compound: CC(C)c1ccc(-c2cnc(N)nc2N)cc1
> 100 µM

If you can, please state the reported solubility at 5 min value of Nc1ncc(-c2ccc3ccccc3c2)c(N)n1 .
> 100 µM

Returns the measured solubility at 5 min for the input compound. Input: CCc1nc(N)nc(N)c1-c1ccc(Cl)cc1
> 100 µM

Could you tell me which solubility at 5 min is on file for Nc1ncc(-c2ccc(N3CCCC3)c([N+](=O)[O-])c2)c(N)n1 ?
> 100 µM

Query: solubility at 5 min; subject: CN(Cc1ccccc1)c1ccc(-c2cnc(N)nc2N)cc1[N+](=O)[O-]
~10 µM

What measured solubility at 5 min goes with Nc1ncc(-c2ccc(Cl)c([N+](=O)[O-])c2)c(N)n1 ?
> 100 µM

solubility at 5 min for COc1cc(-c2cnc(N)nc2N)ccc1C ?
> 100 µM

Given the entry NCCCCCCNc1ccc(-c2cnc(N)nc2N)cc1[N+](=O)[O-] , report its measured solubility at 5 min.
> 100 µM

Which solubility at 5 min reading was recorded for the compound COc1ccc(CNc2ccc(-c3cnc(N)nc3N)cc2[N+](=O)[O-])cc1 ?
~10 µM

* * *

System: MCF7
Protocol: Inhibition of cell viability in human MCF7 cells at 100 uM incubated for 72 hrs by resazurin based assay
Format: functional
Active and inactive are the calls of the source. The rule behind the calls is not given here.
Readout kind: inhibition

See these solved cases before continuing.
1. CC(C)c1ccc(-c2cnc(N)nc2N)cc1 :: inactive
2. Nc1ncc(-c2ccc(Cl)c(F)c2)c(N)n1 :: inactive
3. Cc1ccc(-c2cnc(N)nc2N)cc1 :: inactive
4. COc1ccc(CNc2ccc(-c3cnc(N)nc3N)cc2[N+](=O)[O-])cc1 :: Active
5. NCCCCCCNc1ccc(-c2cnc(N)nc2N)cc1[N+](=O)[O-] :: Active

Value lookup for inhibition; key = Nc1ncc(-c2ccc(F)cc2Br)c(N)n1
inactive

If you can, please state the reported inhibition value of CN(Cc1ccccc1)c1ccc(-c2cnc(N)nc2N)cc1[N+](=O)[O-] .
inactive

Reported inhibition for Nc1ncc(-c2ccc(N3CCCC3)c([N+](=O)[O-])c2)c(N)n1 : what is it?
Active

What measured inhibition goes with Nc1ncc(-c2ccc3ccccc3c2)c(N)n1 ?
Active
